biological target: Integrin alpha-IIb/beta-3 (Homo sapiens, UniProt P05106+P08514); experiment: In vitro binding affinity against human alpha IIb beta-3 integrin
Sequence (P05106 27-788 limits assumed): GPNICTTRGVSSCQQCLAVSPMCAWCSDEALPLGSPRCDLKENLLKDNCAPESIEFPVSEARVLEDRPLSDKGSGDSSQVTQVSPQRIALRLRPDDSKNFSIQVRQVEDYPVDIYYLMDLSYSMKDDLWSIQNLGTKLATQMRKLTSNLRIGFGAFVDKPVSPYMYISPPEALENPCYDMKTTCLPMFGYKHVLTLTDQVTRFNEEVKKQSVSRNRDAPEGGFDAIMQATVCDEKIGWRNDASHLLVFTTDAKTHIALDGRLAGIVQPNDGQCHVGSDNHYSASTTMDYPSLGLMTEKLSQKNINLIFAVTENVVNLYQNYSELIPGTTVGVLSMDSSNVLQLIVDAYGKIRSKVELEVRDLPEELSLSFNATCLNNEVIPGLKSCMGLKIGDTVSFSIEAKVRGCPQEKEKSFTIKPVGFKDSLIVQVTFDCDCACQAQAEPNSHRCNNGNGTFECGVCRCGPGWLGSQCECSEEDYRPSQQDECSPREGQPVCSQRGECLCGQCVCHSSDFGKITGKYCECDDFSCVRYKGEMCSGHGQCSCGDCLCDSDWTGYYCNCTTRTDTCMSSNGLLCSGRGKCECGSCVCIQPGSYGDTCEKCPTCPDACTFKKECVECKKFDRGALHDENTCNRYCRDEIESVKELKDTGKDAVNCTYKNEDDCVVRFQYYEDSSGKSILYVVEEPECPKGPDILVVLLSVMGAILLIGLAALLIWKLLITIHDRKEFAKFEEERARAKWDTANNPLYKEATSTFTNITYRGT
Sequence (P08514 32-887 limits assumed): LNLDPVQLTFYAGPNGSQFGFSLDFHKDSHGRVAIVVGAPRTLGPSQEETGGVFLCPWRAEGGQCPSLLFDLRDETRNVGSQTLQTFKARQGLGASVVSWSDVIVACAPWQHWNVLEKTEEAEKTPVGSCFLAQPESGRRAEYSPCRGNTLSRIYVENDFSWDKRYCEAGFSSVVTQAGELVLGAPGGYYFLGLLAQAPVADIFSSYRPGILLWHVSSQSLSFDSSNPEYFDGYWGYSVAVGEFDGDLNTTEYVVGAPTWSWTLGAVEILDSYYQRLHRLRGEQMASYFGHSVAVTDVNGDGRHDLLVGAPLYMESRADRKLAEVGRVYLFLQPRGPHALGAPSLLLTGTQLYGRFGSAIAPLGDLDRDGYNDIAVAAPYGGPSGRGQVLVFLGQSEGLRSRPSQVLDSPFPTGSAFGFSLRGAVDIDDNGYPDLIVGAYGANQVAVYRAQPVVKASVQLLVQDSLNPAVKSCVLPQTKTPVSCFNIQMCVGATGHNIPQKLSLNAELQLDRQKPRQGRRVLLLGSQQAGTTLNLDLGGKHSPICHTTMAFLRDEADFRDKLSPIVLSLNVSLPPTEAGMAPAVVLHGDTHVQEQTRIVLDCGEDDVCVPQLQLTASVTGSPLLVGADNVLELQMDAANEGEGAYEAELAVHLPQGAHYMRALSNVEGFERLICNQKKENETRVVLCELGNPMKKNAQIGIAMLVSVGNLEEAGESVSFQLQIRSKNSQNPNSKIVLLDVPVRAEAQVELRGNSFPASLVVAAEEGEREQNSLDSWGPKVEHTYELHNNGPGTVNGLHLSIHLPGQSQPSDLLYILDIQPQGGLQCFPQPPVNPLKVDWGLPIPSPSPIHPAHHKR
Sequence (P08514 891-1039 limits assumed): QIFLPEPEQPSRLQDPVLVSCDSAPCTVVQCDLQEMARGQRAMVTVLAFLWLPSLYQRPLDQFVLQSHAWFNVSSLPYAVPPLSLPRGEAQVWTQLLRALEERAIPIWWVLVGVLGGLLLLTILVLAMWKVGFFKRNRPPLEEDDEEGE
Collected Ki values appear next to each entry.
// note: answer is a bare numeric in nM

Below, each entry is followed by its recorded Ki result.
compound="CN(CCC1CCNCC1)C(=O)c1ccc2c(c1)CC(CC(=O)O)C(=O)N(CCc1cccs1)C2 (stereo not given)" measured_parameter=Ki unit_of_measurement=nM reported_value=2.5
compound="CN(CCC1CCNCC1)C(=O)c1ccc2c(c1)CC(CC(=O)O)C(=O)NC2 (stereo not given)" measured_parameter=Ki unit_of_measurement=nM reported_value=3.2
compound="CN(CCC1CCNCC1)C(=O)c1ccc2c(c1)CC(CC(=O)O)C(=O)N(Cc1ccccc1)C2 (stereo not given)" measured_parameter=Ki unit_of_measurement=nM reported_value=1
compound="CN(CCC1CCNCC1)C(=O)c1ccc2c(c1)CC(CC(=O)O)C(=O)N(C1CCCCC1)C2 (stereo not given)" measured_parameter=Ki unit_of_measurement=nM reported_value=1.3
compound="CC(C)CCN1Cc2ccc(C(=O)N(C)CCC3CCNCC3)cc2CC(CC(=O)O)C1=O (stereo not given)" measured_parameter=Ki unit_of_measurement=nM reported_value=1.5

Prompt: Specify Ki for CN(CCC1CCNCC1)C(=O)c1ccc2c(c1)CC(CC(=O)O)C(=O)N(CCc1ccccc1)C2 (stereo not given) and stop.
Response: 3

Prompt: Specify Ki for CN(CCC1CCNCC1)C(=O)c1ccc2c(c1)CC(CC(=O)O)C(=O)N(CCC(C)(C)C)C2 (stereo not given) and stop.
Response: 2

Prompt: Specify Ki for CN(C(=O)c1ccc2c(c1)CC(CC(=O)O)C(=O)N(CCc1ccccc1)C2)c1ccc(C(=N)N)cc1 (stereo not given) and stop.
Response: 1.5

Prompt: Specify Ki for CN(CCC1CCNCC1)C(=O)c1ccc2c(c1)CC(CC(=O)O)C(=O)N(CCc1ccc(F)cc1)C2 (stereo not given) and stop.
Response: 1.7
